Tested on: Clostridium diaphorase
Test: Fluorescent NADH detection assay, Clostridium diaphorase
Format: biochemical
Conditions: 90 min; 10 uM NADH
Give Fluorescence time course, Clostridium for every item shown.
All answers are understood in FLUs, so give the number only.

Query string: Look up Fluorescence time course, Clostridium: CC1=C(C)C(=O)C(C(C)(C)CC(=O)N(C)CCN(C)C(=O)Oc2ccc3c(c2)Oc2cc(OC(=O)N(C)CCN(C)C(=O)CC(C)(C)C4=C(C)C(=O)C(C)=C(C)C4=O)ccc2C32OC(=O)c3ccccc32)=C(C)C1=O [PBI 4441]
Result string: 2539

Query string: Look up Fluorescence time course, Clostridium: CC1=CC(=O)C(C)=C(C(C)(C)CC(=O)N(C)CCN(C)C(=O)Oc2ccc3c(c2)Oc2cc(O)ccc2C32OC(=O)c3ccccc32)C1=O (stereo not shown) [PBI 4412]
Result string: 124786

Query string: Look up Fluorescence time course, Clostridium: CC1=CC(=O)C(C)=C(C(C)(C)CC(=O)N(C)CCN(C)C(=O)Oc2ccc3c(c2)Oc2cc(OC(=O)N(C)CCN(C)C(=O)CC(C)(C)C4=C(C)C(=O)C=C(C)C4=O)ccc2C32OC(=O)c3ccccc32)C1=O [PBI 4413]
Result string: 3798

Query string: Look up Fluorescence time course, Clostridium: CC1=C(C)C(=O)C(C(C)(C)CC(=O)N(C)CCN(C)C(=O)Oc2ccc3c(c2)Oc2cc(O)ccc2C32OC(=O)c3ccccc32)=C(C)C1=O (stereo not shown) [PBI 4440]
Result string: 43468
